Sourced from paper doi:10.1101/2024.02.20.581209

# measured.on: T1, MglA (Myxococcus xanthus, UniProt Q1DB04 1-195)
# T1 sequence: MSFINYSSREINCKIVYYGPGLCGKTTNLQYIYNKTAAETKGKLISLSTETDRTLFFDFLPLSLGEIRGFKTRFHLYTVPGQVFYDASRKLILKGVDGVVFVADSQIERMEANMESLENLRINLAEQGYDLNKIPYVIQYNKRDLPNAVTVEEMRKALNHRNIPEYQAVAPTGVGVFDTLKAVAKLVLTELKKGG
# method.description: ITC
pKd: −log10 of the molar value.
experimental.endpoint: pKd

binder: RomX (N-terminal hexahistidine tagged construct) (natural protein, M. xanthus) MTDEEKVKAMRLARAIASDISLYNEQKIIKGIEQDNLFEVLKEELEEGRELYKSRVSQEIFTKMNFFERAINDIVLRSKAHVKSKIW
value.reported: 5.32
